Values from ChEMBL document CHEMBL4270620

Test: Inhibition of cell proliferation in HUVEC at 80 uM after […] by MTT assay relative to control
Assay type: cell-based
Conditions: human, HUVEC cells
Reported inhibition at 80 µM values follow for various compounds
Number first, unit second: that is the form wanted.

Known inhibition at 80 µM results, listed for orientation:
# compound, inhibition at 80 µM
rows = [
    ("C=C1CC[C@H]2[C@@](C)(CC[C@@H](O)[C@@]2(C)C(=O)OCc2ccccc2)[C@@H]1/C=C/C1=CCOC1=O", "68.7%"),
    ("C=C1CC[C@H]2[C@@](C)(CC[C@@H](OC(C)=O)[C@@]2(C)C(=O)OCc2ccccc2)[C@@H]1CCC1=CCOC1=O", "55.7%"),
]

I have this compound here, C=C1CC[C@@H]2[C@](C)(CO)[C@H](O)CC[C@@]2(C)[C@@H]1C/C=C1/C(=O)OC[C@H]1O [ANDROGRAPHOLIDE] , and I need its recorded inhibition at 80 µM.
26.4%

====

Assay: Inhibition of cell proliferation in HUVEC at 10 uM […] by MTT assay relative to control
Type: cell-based
Conditions: human, HUVEC cells
Reported inhibition at 10 µM values follow for various compounds
Your answer should be a plain number; it is taken to be in %.

# compound, result unit, inhibition at 10 µM
rows = [
    ("C=C1CC[C@H]2[C@@](C)(CC[C@@H](OC(C)=O)[C@@]2(C)C(=O)OCc2ccccc2)[C@@H]1CCC1=CCOC1=O", "%", 6.6),
    ("C=C1CC[C@@H]2[C@](C)(CO)[C@H](O)CC[C@@]2(C)[C@@H]1C/C=C1/C(=O)OC[C@H]1O [ANDROGRAPHOLIDE]", "%", 10.4),
]

Turning now to a further record.
I have this compound here, C=C1CC[C@H]2[C@@](C)(CC[C@@H](O)[C@@]2(C)C(=O)OCc2ccccc2)[C@@H]1/C=C/C1=CCOC1=O , and I need its recorded inhibition at 10 µM.
9.7
